measured parameter: melting point

Request: Requested read-out: melting point. Entry: COC(=O)C1=C[C@@H](OC(C)C)[C@H](NC(C)=O)[C@@H](CC2CO2)C1 (stereo not given in full)
Result: 130 to 131 °C

Request: Requested read-out: melting point. Entry: `ONCc1ccccc1Cl`
Result: 71 to 73 °C

Request: Requested read-out: melting point. Entry: `O=C(O)c1ccc(OCCCON=Cc2ccc(-c3ccccc3)cc2)cc1NC(=O)c1ccccc1C(F)(F)F`
Result: 170 to 172 °C

Request: Requested read-out: melting point. Entry: `CC(=O)C(=Cc1ccc2c(c1)OCO2)C(=O)OCc1ccccc1`
Result: 137 to 138 °C

Request: Requested read-out: melting point. Entry: `O=C(NCc1ccc(Oc2ccccc2)cc1)C1CCC1`
Result: 69 to 71 °C

Request: Requested read-out: melting point. Entry: `CC1(C)C(=O)Nc2cc3[nH]c(NC(=O)c4ccncc4)nc3cc21`
Result: > 300 °C

Request: Requested read-out: melting point. Entry: CNC(=S)C(CN1CCOCC1)(OC)c1ccccn1 (stereo not given)
Result: 128 to 132 °C

Request: Requested read-out: melting point. Entry: `Cc1oc(-c2ccc(C(F)(F)F)cc2)nc1-c1cccc(-c2ccc(OCC(=O)O)cc2)c1`
Result: 178 to 179 °C

Request: Requested read-out: melting point. Entry: `C=CCOc1ccccc1S(=O)(=O)NC(=O)Nc1nc(C)cc(C)n1`
Result: 199 to 200 °C

Request: Requested read-out: melting point. Entry: `O=C(Nc1nc(OCc2ccc(F)cc2)ncc1F)c1snc(Cl)c1Cl`
Result: 87 to 90 °C

Request: Requested read-out: melting point. Entry: `Cn1c(=O)n(S(=O)(=O)c2ccc(Cl)cc2)c(=O)c2ccc(Cl)cc21`
Result: 205 to 208 °C

Request: Requested read-out: melting point. Entry: `OCCOc1ccc(-c2nc(-c3ccc(Cl)cc3)nc(-c3ccc(OCCO)cc3O)n2)c(O)c1`
Result: 149 to 150 °C

Request: Requested read-out: melting point. Entry: `CCOC(=O)N(CC)c1cccc(-c2ccnc3ccnn23)c1`
Result: 79 to 81 °C

Request: Requested read-out: melting point. Entry: `COc1ccccc1-n1c(=O)[nH]c2c(C(N)=O)nc(-c3cccc([N+](=O)[O-])c3)nc21`
Result: 295 to 296 °C

Request: Requested read-out: melting point. Entry: `CCCCc1ccc(-c2ncc(C#N)c(Cl)n2)cc1`
Result: 107 °C

Request: Requested read-out: melting point. Entry: Oc1c(F)cc2c(c1F)CC(n1cc[nH]c1=S)CC2 (stereo not given)
Result: 258 to 260 °C

Request: Requested read-out: melting point. Entry: `CCc1ccc2c3c(ccc(C=O)c13)-c1ccccc1-2`
Result: 114 to 116 °C

Request: Requested read-out: melting point. Entry: `CCCCNC(=O)NS(=O)(=O)c1ccc(CCNC(=O)N2CC(C)=C(C)C2=O)cc1`
Result: 198 to 200 °C

Request: Requested read-out: melting point. Entry: `COc1ccc2c(Cl)c(C(=O)Cl)sc2c1`
Result: 120 to 121 °C

Request: Requested read-out: melting point. Entry: `Cn1cc(C2=C(c3cn(CCCN=C=S)c4ccccc34)C(=O)NC2=O)c2ccccc21`
Result: 219 to 221 °C

The measured values listed here are drawn from a melting point compilation (Tetko et al.; mined from patent text by program, amines drawn as free bases though some values may be those of a salt).
